tgt: NF-κB p50 (rhNF-κB) (Homo sapiens, UniProt P19838 P19838:1-433)
Sequence (P19838 1-433, one chain of several): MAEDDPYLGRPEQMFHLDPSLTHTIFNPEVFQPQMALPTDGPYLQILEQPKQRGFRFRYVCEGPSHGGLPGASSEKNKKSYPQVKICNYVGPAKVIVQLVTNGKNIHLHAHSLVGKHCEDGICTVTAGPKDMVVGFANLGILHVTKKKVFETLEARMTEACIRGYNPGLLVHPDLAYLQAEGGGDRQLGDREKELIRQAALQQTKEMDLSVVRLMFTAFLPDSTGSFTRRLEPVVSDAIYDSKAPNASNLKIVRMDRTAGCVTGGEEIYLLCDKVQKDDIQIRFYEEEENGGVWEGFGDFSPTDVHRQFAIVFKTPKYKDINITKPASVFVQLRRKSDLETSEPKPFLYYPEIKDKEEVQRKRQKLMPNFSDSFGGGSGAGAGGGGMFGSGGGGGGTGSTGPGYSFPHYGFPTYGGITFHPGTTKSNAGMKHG
procedureText: SPR; PBS, 0.05% Nonidet P-40, 2.5 mM DTT, 25 C; natural consensus hairpin control
conditionSet: tags: Promega, chain copies: 2 (inferred), known NF-κB consensus duplex strands linked via AAAA tetraloop
parameterMeasured: Kd (nM)
// return numeric value only (unit: nM, not printed)

Give the measured Kd for Cont-68 (ssDNA) DNA: CCTTGAAGGGATTTCCCTCCAAAAGGAGGGAAATCCCTTCAAGGTGGACTGATACGATCGATTGACAG
3.5

Cited source for all entries: patent US20140194320
